All figures here come from ChEMBL document CHEMBL1165996.

pIC50 values for the compounds below.
test system: SW480; test: Cytotoxicity against human SW480 cells after 48 hrs by MTT assay; format: functional, cell-based; conditions: SW480, 48 h
To interpret pIC50, take it as minus log10 of a concentration measured in moles per litre.

C/C=C(\C)C(=O)O[C@@H]1C/C(C)=C/CC[C@@]2(C)O[C@@H]2[C@@H](OC(=O)C(C)C(C)OC(C)=O)[C@H]1C(C)C (some centres not stated) [TRIJUGIN I] | 4.60

Recorded pIC50 for C[C@@H]1CC[C@]2(C(=O)O)CC[C@]3(C)C(=CC[C@@H]4[C@@]5(C)C(CO)=CC(C)(C)[C@@H]5CC[C@]43C)[C@@H]2[C@]1(C)O [HYPTASIENIC ACID] , please?
4.96
